Molecular target: SARS-COV-2 RBD extracellular domain expressed with a C-terminal mouse IgG2a (SARS-COV-2 RBD-mFc) (SARS-CoV-2)
Assay: SPR, captured mAb, RBD-mFc in solution, 37 C
# kon listing for each entry below
Answer in M⁻¹ s⁻¹, number only, no unit symbol.

binder="mAb11008 (antibody, V domains shown) VH: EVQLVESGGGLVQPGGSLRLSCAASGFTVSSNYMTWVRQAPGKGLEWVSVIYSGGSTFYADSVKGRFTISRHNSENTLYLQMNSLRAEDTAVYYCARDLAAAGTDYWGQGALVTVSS VL: DIQLTQSPSFLSASVGDRVTITCWASQGISSYLAWYQQKPGKAPKLLIYAASTLQSGVPSRFSGSGSGTEFTLTISSLQPDDFATYYCQHLNSYLYTFGQGTKLEIKR" reading=464000

Exercise: Entry under review: mAb11004 (antibody, V domains shown) VH: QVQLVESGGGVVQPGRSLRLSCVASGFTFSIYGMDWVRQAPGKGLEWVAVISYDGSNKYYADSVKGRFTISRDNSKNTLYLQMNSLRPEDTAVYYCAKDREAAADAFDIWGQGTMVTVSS VL: DIQMTQSPSSVSASVGDRVTITCRASQGISSWLAWYQQKPGKAPKLLIYAASSLHSGVPSRFSGSGSGTDFTLTISSLQPEDFATYYCQQANSFRLTFGGGTKVEIKR . Reported kon?
Solution: 1.01e+06

Exercise: And for mAb10921 (antibody, V domains shown) VH: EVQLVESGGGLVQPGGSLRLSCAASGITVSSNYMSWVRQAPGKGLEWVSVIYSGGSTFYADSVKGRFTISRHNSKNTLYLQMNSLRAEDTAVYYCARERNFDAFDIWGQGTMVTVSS VL: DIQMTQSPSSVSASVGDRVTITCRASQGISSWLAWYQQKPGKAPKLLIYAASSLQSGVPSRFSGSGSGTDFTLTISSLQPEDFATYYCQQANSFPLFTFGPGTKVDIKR ?
Solution: 458000

Exercise: And for mAb10913 (antibody, V domains shown) VH: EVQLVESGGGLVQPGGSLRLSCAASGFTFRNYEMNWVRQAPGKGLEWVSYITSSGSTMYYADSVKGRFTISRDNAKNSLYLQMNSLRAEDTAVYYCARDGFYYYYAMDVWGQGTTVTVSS VL: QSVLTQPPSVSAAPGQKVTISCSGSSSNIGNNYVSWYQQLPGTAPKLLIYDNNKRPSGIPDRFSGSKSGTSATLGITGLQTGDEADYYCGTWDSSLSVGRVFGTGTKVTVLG ?
Solution: 6.32e+06
